# testedOn: glucocorticoid receptor (Homo sapiens, UniProt P04150)
# Construct: endogenous in cells
# Sequence (P04150 1-777): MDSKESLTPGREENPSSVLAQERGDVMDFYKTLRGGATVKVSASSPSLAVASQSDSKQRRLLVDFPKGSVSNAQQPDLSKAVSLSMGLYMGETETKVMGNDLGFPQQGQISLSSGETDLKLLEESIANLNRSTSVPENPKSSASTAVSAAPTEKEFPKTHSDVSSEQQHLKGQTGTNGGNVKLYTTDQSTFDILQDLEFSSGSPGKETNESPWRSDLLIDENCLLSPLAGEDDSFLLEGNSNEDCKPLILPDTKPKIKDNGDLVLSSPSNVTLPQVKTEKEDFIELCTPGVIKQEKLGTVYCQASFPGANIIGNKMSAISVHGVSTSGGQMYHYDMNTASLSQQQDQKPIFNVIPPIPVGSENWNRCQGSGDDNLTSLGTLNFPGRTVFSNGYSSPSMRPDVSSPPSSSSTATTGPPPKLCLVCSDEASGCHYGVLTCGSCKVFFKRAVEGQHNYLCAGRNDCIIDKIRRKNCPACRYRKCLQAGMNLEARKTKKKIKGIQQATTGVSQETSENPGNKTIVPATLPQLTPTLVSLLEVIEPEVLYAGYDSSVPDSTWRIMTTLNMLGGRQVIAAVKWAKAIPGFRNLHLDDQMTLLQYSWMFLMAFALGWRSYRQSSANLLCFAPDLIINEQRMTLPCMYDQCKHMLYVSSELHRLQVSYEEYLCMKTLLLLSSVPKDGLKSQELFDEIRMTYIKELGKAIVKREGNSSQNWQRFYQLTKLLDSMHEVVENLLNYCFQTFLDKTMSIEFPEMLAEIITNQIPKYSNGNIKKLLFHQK
# measurementNotes: Ligand binding assay (GR BIND)
measurementLabel: Ki (nM)

The examples below pair each entry with its known result.
C[C@]12Cc3cnn(-c4ccc(F)cc4)c3C=C1CC[C@@H]2CN(CC(O)c1cccnc1)S(=O)(=O)CC(F)(F)F (stereo partly drawn)
13.3
C[C@@H](O)CN(C[C@H]1CCC2=Cc3c(cnn3-c3ccc(F)cc3)C[C@@]21C)S(=O)(=O)Cc1ccccc1C(=O)O
93.9
Cc1noc(C)c1S(=O)(=O)N(CC1CC1)C[C@H]1CCC2=Cc3c(cnn3-c3ccc(F)cc3)C[C@@]21C
0.7

(P) CNC(=O)Nc1ccc(S(=O)(=O)N(CC2CC2)C[C@H]2CCC3=Cc4c(cnn4-c4ccc(F)cc4)C[C@@]32C)c(Cl)c1
(Q) CC(C)(O)CN(C[C@H]1CCC2=Cc3c(cnn3-c3ccc(F)cc3)C[C@@]21C)S(=O)(=O)c1ccccc1F
Ask: Exercise: compare P and Q ; which one has the greater Ki? Response format: the label of the selected entry.
Result: Q

====

# testedOn: human GR (Homo sapiens)
# Sequence (P04150 1-777): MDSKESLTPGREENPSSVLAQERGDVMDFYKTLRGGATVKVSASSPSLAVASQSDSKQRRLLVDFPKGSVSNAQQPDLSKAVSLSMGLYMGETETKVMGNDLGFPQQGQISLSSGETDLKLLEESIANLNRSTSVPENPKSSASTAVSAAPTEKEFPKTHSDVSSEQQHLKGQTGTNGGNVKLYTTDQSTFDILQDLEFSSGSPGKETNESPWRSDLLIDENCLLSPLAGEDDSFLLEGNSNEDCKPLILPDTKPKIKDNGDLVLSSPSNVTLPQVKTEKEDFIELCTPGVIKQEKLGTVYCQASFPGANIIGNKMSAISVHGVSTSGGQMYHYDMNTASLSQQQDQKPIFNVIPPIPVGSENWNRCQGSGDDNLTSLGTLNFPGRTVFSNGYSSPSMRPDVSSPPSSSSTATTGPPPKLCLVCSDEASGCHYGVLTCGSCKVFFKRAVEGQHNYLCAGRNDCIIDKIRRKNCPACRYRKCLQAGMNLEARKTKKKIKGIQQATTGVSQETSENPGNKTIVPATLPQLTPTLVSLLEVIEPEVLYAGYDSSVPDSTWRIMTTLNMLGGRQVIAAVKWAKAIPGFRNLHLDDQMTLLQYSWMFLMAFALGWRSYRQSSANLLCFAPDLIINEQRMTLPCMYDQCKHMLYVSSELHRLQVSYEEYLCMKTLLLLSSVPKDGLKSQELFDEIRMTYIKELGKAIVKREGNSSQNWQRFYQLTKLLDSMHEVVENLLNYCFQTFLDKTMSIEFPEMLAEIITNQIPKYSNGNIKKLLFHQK
# measurementNotes: Trans-Activation Modulation of Glucocorticoid Receptor (GRAMMER), MMTV-LUC reporter, agonist mode
# Assay type: cell-based
# Parameters: endogenous in cells
# condition: A549, A549 cells; maximum activity; read-out: Transactivation A549 Cells GRAMMER Emax
# Excerpt: This assay assesses the ability of test compounds to control transcription from the MMTV-LUC reporter gene in lung adenocarcinoma A549 cells or MDA-MB-453 cells, a human breast cancer cell line that naturally expresses the human GR. […] The routine transient assay consists of plating 7,000-25,000 cells/well of a white, clear-bottom 96-well plate. […] The cells are trypsinized and counted to the right cell number in the proper amount of fresh media. […]
measurementLabel: Emax (%)

The examples below pair each entry with its known result.
C[C@]12Cc3cnn(-c4ccccc4)c3C=C1CC[C@@H]2CN(CCc1ccccn1)S(=O)(=O)Cc1cccnc1
21.3
C[C@]12Cc3cnn(-c4ccc(F)cc4)c3C=C1CC[C@@H]2CN(CC#N)S(=O)(=O)c1cc(F)cc(F)c1
44.8
C[C@]12Cc3cnn(-c4ccc(F)cc4)c3C=C1CC[C@@H]2CN(CCc1ccncc1)S(=O)(=O)CC(F)(F)F
67.2
CNC(=O)Nc1ccc(S(=O)(=O)N(CC2CC2)C[C@H]2CCC3=Cc4c(cnn4-c4ccc(F)cc4)C[C@@]32C)c(Cl)c1
25.2
C[C@]12Cc3cnn(-c4ccc(F)cc4)c3C=C1CC[C@@H]2CN(CC1CC1)S(=O)(=O)/C=C/c1ccccc1
8.3

(P) C[C@]12Cc3cnn(-c4ccc(F)cc4)c3C=C1CC[C@@H]2CN(CC(O)c1ccncc1)S(=O)(=O)CC(F)(F)F (stereo partly shown)
(Q) C[C@]12Cc3cnn(-c4ccc(F)cc4)c3C=C1CC[C@@H]2CN(CCO)S(=O)(=O)c1cc(F)cc(F)c1
Ask: Exercise: compare P and Q ; which one has the greater Emax? Response format: the label of the selected entry.
Result: P

====

# testedOn: human GR (Homo sapiens)
# measurementNotes: Trans-Activation Modulation of Glucocorticoid Receptor (GRAMMER), MMTV-LUC reporter, agonist mode
# Assay type: cell-based
# Parameters: endogenous in cells
# condition: A549, A549 cells; maximum activity; read-out: Transactivation A549 Cells GRAMMER Emax
measurementLabel: Emax (%)

The examples below pair each entry with its known result.
C[C@]12Cc3cnn(-c4ccc(F)cc4)c3C=C1CC[C@@H]2CN(CCc1ccccc1F)S(=O)(=O)Cc1ccccc1C(N)=O
65.1
COc1ccccc1CCN(C[C@H]1CCC2=Cc3c(cnn3-c3ccc(F)cc3)C[C@@]21C)S(=O)(=O)CC(F)(F)F
73.2
C[C@]12Cc3cnn(-c4ccc(F)cc4)c3C=C1CC[C@@H]2CN(CC1(O)CC1)S(=O)(=O)c1ccccc1F
57.5
C[C@]12Cc3cnn(-c4ccc(F)cc4)c3C=C1CC[C@@H]2CN(CCc1ccccc1F)S(=O)(=O)Cc1ccccc1C(F)(F)F
46
Cc1noc(C)c1S(=O)(=O)N(CC1CC1)C[C@H]1CCC2=Cc3c(cnn3-c3ccc(F)cc3)C[C@@]21C
66

(I) C[C@]12Cc3cnn(-c4ccc(F)cc4)c3C=C1CC[C@@H]2CN(CCO)S(=O)(=O)c1ccccc1C#N
(II) C[C@]12Cc3cnn(-c4ccc(F)cc4)c3C=C1CC[C@@H]2CN(CC#N)S(=O)(=O)c1ccccc1-c1ccccc1
Ask: Exercise: compare I and II ; which one has the greater Emax? Response format: the label of the selected entry.
Result: I
(I: 50.6%, II: 18.1%)

====

# testedOn: human GR (Homo sapiens, UniProt P04150)
# measurementNotes: Trans-Activation Modulation of Glucocorticoid Receptor (GRAMMER), MMTV-LUC reporter, agonist mode
# Format: cell-based
# Set-up: endogenous in cells
# condition: A549, A549 cells; maximum activity; read-out: Transactivation A549 Cells GRAMMER Emax
measurementLabel: Emax (%)

The examples below pair each entry with its known result.
C[C@]12Cc3cnn(-c4ccc(F)cc4)c3C=C1CC[C@@H]2CN(CC1CC1)S(=O)(=O)c1cc(C(F)(F)F)ccc1Cl
2.9
C=CCN(C[C@H]1CCC2=Cc3c(cnn3-c3ccc(F)cc3)C[C@@]21C)S(=O)(=O)c1ccccc1F
39.3
C[C@]12Cc3cnn(-c4ccc(F)cc4)c3C=C1CC[C@@H]2CN(CC1CC1)S(=O)(=O)c1ccc(F)c(Cl)c1
27.6
C[C@]12Cc3cnn(-c4ccc(F)cc4)c3C=C1CC[C@@H]2CN(CCc1ccccn1)S(=O)(=O)Cc1ccccc1C(N)=O
36.6
Cc1oncc1S(=O)(=O)N(CC#N)C[C@H]1CCC2=Cc3c(cnn3-c3ccc(F)cc3)C[C@@]21C
2.7

(a) C[C@]12Cc3cnn(-c4ccc(F)cc4)c3C=C1CC[C@@H]2CN(CCO)S(=O)(=O)c1ccc(Oc2ccccc2)cc1
(b) C[C@]12Cc3cnn(-c4ccc(F)cc4)c3C=C1CC[C@@H]2CN(CCc1ccccn1)S(=O)(=O)Cc1ccccc1C(F)(F)F
Ask: Exercise: compare a and b ; which one has the greater Emax? Response format: the label of the selected entry.
Result: b
